assayed.target: Androgen receptor (Homo sapiens, UniProt P10275)
Sequence (P10275 whole entry, the tested form may be a part): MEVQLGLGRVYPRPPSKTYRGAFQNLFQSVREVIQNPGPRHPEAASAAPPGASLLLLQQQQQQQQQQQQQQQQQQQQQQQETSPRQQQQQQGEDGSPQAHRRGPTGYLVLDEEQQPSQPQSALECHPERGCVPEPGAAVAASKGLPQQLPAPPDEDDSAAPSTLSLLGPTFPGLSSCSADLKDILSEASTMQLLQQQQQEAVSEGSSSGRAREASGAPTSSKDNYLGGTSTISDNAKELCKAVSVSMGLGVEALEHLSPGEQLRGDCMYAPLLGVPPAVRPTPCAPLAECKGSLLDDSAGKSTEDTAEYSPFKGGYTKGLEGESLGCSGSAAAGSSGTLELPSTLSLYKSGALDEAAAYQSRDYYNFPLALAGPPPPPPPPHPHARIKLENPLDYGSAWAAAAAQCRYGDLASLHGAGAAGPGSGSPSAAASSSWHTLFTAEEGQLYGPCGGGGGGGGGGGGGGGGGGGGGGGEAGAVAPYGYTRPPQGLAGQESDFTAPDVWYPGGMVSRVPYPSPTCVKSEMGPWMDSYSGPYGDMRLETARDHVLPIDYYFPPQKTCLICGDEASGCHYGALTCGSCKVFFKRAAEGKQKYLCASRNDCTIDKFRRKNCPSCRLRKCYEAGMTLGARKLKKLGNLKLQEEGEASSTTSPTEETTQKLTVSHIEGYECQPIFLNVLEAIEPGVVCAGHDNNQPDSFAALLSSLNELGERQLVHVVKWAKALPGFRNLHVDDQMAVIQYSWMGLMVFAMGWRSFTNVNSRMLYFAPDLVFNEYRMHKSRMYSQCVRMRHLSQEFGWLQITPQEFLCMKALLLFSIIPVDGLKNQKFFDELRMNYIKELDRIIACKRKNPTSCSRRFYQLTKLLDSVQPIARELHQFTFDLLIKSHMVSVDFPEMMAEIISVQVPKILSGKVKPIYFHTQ
run.description: Displacement of fluormone-AL green from GST-tagged androgen receptor LBD (unknown origin) measured after 4 hrs by fluorescence polarization assay
property: pIC50
Please report pIC50 as the negative decimal logarithm of the molar concentration, giving only the number.

Data request: What value of pIC50 has been recorded for this entry: Clc1ccccc1C1Nc2ccc3ccccc3c2C2C=CCC21 (stereo unspecified)
Data returned: 5.40

* * *

assayed.target: Androgen receptor (Homo sapiens, UniProt P10275)
Format: cell-based, LNCaP
Each record is given true (1) if its reported IC50 is strictly below 2000 nM. Records at or above 2000 nM are given false (0).

• Clc1ccc(C2Nc3ccc4ccccc4c3C3OCCCC23)c(Cl)c1 (stereo not drawn) = false (0)

Now look at this entry.
Data request: Dear colleague, could you confirm whether IC50 of Clc1ccc(C2Nc3ccc4ccccc4c3C3C4CCC(C4)C23)cc1 (stereo not drawn) falls below 2000 nM? Thanks.
Data returned: false (0)

* * *

assayed.target: Androgen receptor (Homo sapiens)
Type: cell-based, LNCaP
property: log10 of IC50 (log10 of the value in nM)
The common logarithm of IC50 in nM is what is listed.

# example entries with known answers
* Clc1ccccc1C1Nc2ccc3ccccc3c2C2C=CCC21 (stereo unspecified) | 3.38
* Fc1ccccc1C1Nc2ccc3ccccc3c2C2C=CCC21 (stereo unspecified) | 2.34
* Brc1ccc(C2Nc3ccc4ccccc4c3C3C=CCC32)cc1 (stereo unspecified) | 2.18
* Clc1ccc(C2Nc3ccc4ccccc4c3C3C=CCC32)cc1 (stereo unspecified) | 3.28
* c1ccc(C2Nc3ccc4ccccc4c3C3C4CCC(C4)C23)cc1 (stereo unspecified) | 3.75

Data request: What value of log10 of IC50 has been recorded for this entry: CCOC(=O)C1Nc2ccc3ccccc3c2C2C=CCC12 (stereo unspecified)
Data returned: 2.91
